// provenance: ChEMBL document CHEMBL1148546

# Protocol text: Selectivity for dopamine D2 over adrenergic alpha-1 receptor
Property label: Ratio Ki
One number for each entry.

structure_as_smiles=O=c1[nH]c2[nH]c(-c3ccccc3Cl)cc2c(=O)n1CCN1CCN(c2ccccc2Cl)CC1 numeric_value=57

Return reported Ratio Ki values for all items listed beneath this line.
1. COc1ccccc1-c1cc2c(=O)n(CCN3CCN(c4ccccc4Cl)CC3)c(=O)[nH]c2[nH]1
2. Cc1ccc(-c2cc3c(=O)n(CCN4CCN(c5ccccc5Cl)CC4)c(=O)[nH]c3[nH]2)cc1
3. COc1ccc(-c2cc3c(=O)n(CCN4CCN(c5ccccc5Cl)CC4)c(=O)[nH]c3[nH]2)cc1

109
147
10

Return reported Ratio Ki values for all items listed beneath this line.
1. O=c1[nH]c2[nH]c(-c3ccccc3)cc2c(=O)n1CCN1CCN(c2ccccc2Cl)CC1
2. Cc1ccccc1-c1cc2c(=O)n(CCN3CCN(c4ccccc4Cl)CC3)c(=O)[nH]c2[nH]1

[29, 224]

Name the recorded Ratio Ki of the item O=c1[nH]c2[nH]c(-c3ccc(Cl)cc3)cc2c(=O)n1CCN1CCN(c2ccccc2Cl)CC1 in your answer. 898

---

# Target: D(2) dopamine receptor (Homo sapiens)
# Sequence (P14416 whole entry): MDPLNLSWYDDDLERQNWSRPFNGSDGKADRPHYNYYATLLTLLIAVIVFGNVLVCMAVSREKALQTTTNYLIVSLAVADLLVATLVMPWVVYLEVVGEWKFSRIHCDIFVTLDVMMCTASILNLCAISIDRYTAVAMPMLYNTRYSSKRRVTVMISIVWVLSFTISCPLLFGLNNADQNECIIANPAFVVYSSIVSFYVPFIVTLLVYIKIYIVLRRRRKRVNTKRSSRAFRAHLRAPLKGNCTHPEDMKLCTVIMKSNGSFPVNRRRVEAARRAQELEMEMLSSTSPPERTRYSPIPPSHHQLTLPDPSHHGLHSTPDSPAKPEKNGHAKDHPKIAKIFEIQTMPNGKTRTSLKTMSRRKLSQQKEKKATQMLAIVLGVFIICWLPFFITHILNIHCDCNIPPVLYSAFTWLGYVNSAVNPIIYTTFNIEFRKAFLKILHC
# Protocol text: Binding affinity to dopamine D2 receptor
Property label: Ki

structure_as_smiles=Cc1ccc(-c2cc3c(=O)n(CCN4CCN(c5ccccc5Cl)CC4)c(=O)[nH]c3[nH]2)cc1 property_label=Ki result="1720 nM"
structure_as_smiles=Cc1ccc(-c2cc3[nH]c(=O)n(CCN4CCN(c5ccccc5Cl)CC4)c(=O)c3[nH]2)cc1 property_label=Ki result="> 10000 nM"
structure_as_smiles=O=c1[nH]c2[nH]c(-c3ccccc3Cl)cc2c(=O)n1CCN1CCN(c2ccccc2Cl)CC1 property_label=Ki result="356 nM"
structure_as_smiles=O=c1[nH]c2[nH]c(-c3ccc(Cl)cc3)cc2c(=O)n1CCN1CCN(c2ccccc2Cl)CC1 property_label=Ki result="2370 nM"
structure_as_smiles=Cc1ccccc1-c1cc2c(=O)n(CCN3CCN(c4ccccc4Cl)CC3)c(=O)[nH]c2[nH]1 property_label=Ki result="627 nM"
structure_as_smiles=O=c1[nH]c2[nH]c(-c3ccccc3)cc2c(=O)n1CCN1CCN(c2ccccc2Cl)CC1 property_label=Ki result="137 nM"
structure_as_smiles=COc1ccc(-c2cc3c(=O)n(CCN4CCN(c5ccccc5Cl)CC4)c(=O)[nH]c3[nH]2)cc1 property_label=Ki result="165 nM"

# ---- query compound ----
Name the recorded Ki of the item COc1ccccc1-c1cc2c(=O)n(CCN3CCN(c4ccccc4Cl)CC3)c(=O)[nH]c2[nH]1 in your answer. 363 nM

---

For each record, write down the corresponding Ratio pKb.
# Target: Alpha adrenergic receptor 1A and 1B (Rattus norvegicus) (UniProt P15823+P43140)
# Sequence (P15823 whole entry, looked up): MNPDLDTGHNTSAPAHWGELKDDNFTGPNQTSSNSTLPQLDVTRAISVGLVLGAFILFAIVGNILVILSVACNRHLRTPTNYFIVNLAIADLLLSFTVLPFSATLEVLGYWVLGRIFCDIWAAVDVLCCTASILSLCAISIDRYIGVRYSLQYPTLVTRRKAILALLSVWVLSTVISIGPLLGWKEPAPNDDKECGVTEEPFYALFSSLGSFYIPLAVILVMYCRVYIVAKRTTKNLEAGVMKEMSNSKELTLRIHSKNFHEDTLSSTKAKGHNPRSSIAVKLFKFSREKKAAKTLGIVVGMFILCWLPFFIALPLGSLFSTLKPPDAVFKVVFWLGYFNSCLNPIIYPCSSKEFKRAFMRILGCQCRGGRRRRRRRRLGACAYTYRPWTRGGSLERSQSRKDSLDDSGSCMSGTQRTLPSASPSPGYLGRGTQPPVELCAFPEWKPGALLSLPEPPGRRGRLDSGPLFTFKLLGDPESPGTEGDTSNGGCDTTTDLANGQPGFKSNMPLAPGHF
# Sequence (P43140 whole entry, looked up): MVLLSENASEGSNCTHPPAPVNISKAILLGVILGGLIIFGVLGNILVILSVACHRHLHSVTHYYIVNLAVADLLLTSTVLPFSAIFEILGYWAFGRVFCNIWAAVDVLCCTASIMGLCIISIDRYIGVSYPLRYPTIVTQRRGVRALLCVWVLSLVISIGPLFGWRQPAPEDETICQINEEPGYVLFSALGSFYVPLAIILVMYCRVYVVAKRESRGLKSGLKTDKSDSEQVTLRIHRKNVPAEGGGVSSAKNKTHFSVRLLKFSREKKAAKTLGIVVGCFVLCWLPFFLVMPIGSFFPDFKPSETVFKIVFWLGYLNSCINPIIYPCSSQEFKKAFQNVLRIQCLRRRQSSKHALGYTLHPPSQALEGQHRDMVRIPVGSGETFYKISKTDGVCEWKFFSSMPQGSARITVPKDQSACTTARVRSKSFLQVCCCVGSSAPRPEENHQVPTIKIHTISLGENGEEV
# Protocol text: Selectivity for ADRA1B over ADRA1A
# Type: protein assay
Numbers only.

Consider the reported Ratio pKb for these molecules:
structure_as_smiles=Cc1ccc(-c2cc3[nH]c(=O)n(CCN4CCN(c5ccccc5Cl)CC4)c(=O)c3[nH]2)cc1 property_label="Ratio pKb" numeric_value=0.4
structure_as_smiles=COc1ccc(-c2cc3c(=O)n(CCN4CCN(c5ccccc5Cl)CC4)c(=O)[nH]c3[nH]2)cc1 property_label="Ratio pKb" numeric_value=4
structure_as_smiles=Cc1ccc(-c2cc3c(=O)n(CCN4CCN(c5ccccc5Cl)CC4)c(=O)[nH]c3[nH]2)cc1 property_label="Ratio pKb" numeric_value=2

Name the recorded Ratio pKb of the item O=c1[nH]c2[nH]c(-c3ccc(Cl)cc3)cc2c(=O)n1CCN1CCN(c2ccccc2Cl)CC1 in your answer. 2
